- Assay procedure: Selectivity index, ratio of CC50 for BHK21 cells to EC50 for Sindbis virus
- Type: toxicity, cell-based, BHK-21
- Measurement setup: hamster, read-out: Ratio CC50/EC50
Measurement type: selectivity ratio

The compound identified as CO[C@@H]1C[C@H](O[C@H]2CC[C@@]3(C)C(=CC[C@H]4C(=O)OC5CO[C@]6(C)OC=C(CC[C@@H]43)[C@H]56)C2)O[C@H](C)[C@H]1O[C@H]1C[C@H](O)[C@H](O[C@@H]2C[C@@H](OC)[C@H](O[C@@H]3O[C@H](CO)[C@@H](O[C@@H]4O[C@H](CO)[C@@H](O)[C@H](O)[C@H]4O)[C@H](O)[C@H]3O)[C@@H](C)O2)[C@@H](C)O1 (stereo partly specified) [PANICULATUMOSIDE C] registered its selectivity ratio at 11000

Origin of measurements: ChEMBL document CHEMBL1156462
